target: T1, human GPC3-His protein (human, UniProt P51654 25-559, limits assumed); test: SPR, antibody captured on Protein A chip, human GPC3-His injected, 1:1 Langmuir model;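 also: flow cell at 25 °C, antigen injected for 240 s at five twofold dilutions starting at 200 nM, dissociation followed up to 600 s, double-referenced sensorgrams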
T1 construct: also called human GPC3 protein; not shown: His tag
Property measured: kon (M⁻¹ s⁻¹)
API: value field is a number in M⁻¹ s⁻¹; no unit string.

A selection of reference data follows.
{"columns": ["Binder", "Unit info", "kon"],
 "data": [
  ["hAb007LH1L1b (antibody, human IgG1, V domains shown, Humanized F3.81.19) VH: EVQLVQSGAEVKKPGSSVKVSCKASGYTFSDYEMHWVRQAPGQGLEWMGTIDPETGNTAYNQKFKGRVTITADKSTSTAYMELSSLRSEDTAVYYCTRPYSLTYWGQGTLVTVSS VL: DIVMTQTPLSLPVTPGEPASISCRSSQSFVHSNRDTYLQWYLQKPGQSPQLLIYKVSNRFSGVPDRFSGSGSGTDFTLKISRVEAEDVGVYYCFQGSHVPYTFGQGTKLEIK", "M⁻¹ s⁻¹", 103000],
  ["hAb005LH1L1b (antibody, human IgG1, V domains shown, Humanized F3.54.12) VH: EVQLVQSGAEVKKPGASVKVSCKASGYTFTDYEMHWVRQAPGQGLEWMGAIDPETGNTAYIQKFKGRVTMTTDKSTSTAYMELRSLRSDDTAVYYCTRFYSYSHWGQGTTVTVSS VL: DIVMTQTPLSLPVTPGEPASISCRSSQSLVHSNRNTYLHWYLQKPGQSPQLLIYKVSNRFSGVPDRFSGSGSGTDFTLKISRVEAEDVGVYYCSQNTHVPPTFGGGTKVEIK", "M⁻¹ s⁻¹", 272000],
  ["hAb001H1aL1 (antibody, human IgG1, V domains shown, Humanized F2.169.2) VH: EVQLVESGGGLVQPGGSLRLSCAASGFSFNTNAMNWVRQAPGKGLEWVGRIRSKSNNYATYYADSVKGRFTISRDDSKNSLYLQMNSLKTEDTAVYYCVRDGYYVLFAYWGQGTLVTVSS VL: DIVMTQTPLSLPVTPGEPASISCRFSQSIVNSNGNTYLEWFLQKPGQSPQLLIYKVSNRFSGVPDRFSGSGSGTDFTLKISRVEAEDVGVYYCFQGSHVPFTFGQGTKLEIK", "M⁻¹ s⁻¹", "2.6e+06"]
]}

Field: next binder
Request: Quick one: kon for hAb006LH3L1b (antibody, human IgG1, V domains shown, Humanized F3.38.7) VH: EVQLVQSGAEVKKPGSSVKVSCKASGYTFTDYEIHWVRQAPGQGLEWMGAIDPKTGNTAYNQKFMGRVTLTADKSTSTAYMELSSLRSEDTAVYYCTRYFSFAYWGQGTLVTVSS VL: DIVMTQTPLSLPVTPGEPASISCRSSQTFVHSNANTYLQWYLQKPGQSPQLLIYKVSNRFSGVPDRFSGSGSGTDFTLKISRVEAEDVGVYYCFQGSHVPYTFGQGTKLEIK ?
Response: 162000
